Can you tell me IC50 for the items I'm about to list?
- target: ABL1 (Homo sapiens (Human))
- Sequence (P00519 whole entry): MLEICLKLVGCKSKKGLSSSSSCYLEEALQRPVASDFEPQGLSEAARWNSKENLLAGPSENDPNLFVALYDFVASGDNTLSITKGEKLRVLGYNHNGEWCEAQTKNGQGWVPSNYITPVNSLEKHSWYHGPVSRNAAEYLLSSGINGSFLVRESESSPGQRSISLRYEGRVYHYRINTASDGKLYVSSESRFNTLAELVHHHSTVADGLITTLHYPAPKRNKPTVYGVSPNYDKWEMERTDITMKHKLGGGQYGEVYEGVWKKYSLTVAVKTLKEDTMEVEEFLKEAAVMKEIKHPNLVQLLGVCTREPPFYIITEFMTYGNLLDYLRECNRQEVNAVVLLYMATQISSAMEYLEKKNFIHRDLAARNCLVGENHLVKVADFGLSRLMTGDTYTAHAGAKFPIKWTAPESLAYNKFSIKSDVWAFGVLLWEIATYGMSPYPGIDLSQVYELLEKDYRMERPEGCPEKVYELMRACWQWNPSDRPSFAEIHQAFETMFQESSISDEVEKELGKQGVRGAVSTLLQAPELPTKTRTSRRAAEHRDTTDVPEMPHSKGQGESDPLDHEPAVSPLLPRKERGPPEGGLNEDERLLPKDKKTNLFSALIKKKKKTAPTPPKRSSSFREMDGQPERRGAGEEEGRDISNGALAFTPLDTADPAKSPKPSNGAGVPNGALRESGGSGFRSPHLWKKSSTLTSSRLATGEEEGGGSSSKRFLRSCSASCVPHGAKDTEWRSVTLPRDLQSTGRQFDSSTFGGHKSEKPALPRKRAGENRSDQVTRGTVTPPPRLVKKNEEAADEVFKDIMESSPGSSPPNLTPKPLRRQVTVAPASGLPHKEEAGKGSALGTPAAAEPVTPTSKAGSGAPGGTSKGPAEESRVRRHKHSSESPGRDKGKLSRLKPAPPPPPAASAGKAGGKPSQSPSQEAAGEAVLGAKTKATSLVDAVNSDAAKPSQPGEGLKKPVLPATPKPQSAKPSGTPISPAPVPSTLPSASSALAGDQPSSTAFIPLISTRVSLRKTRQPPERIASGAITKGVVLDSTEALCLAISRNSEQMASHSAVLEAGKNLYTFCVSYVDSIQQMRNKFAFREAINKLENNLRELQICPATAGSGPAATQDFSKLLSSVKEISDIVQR
- method_description: Kinase profiling, ABL1 10-dose IC50
- Format: biochemical
- condition_context: 10 μM ATP; first run (TK3-141, TK3-144, CD-1-002); read-out: Compound IC50 ABL1 Data 1
Give your result in nM as a bare value.

# input Which IC50 value belongs to Cc1ccc(C(=O)Nc2ccc(CN3CCN(CCO)CC3)c(C3CC3)c2)cc1C#Cc1cnc2cccnn12 ?
# output 0.413

# input Data request, read-out IC50, for COCCN1CCN(Cc2ccc(NC(=O)c3ccc(C)c(C#Cc4cnc5cccnn45)c3)cc2C2CC2)CC1
# output 0.686

# input Report IC50 for Cc1ccc(C(=O)Nc2ccc(CN3CCN(CCO)CC3)c(Cl)c2)cc1C#Cc1cnc2cccnn12 please.
# output 0.31

Values from patent US12398142B2
